# assayed-system: human somatostatin receptor subtype 2 (Homo sapiens, UniProt P30874)
# Construct: expressed in transfected cells
# Sequence (P30874 whole entry): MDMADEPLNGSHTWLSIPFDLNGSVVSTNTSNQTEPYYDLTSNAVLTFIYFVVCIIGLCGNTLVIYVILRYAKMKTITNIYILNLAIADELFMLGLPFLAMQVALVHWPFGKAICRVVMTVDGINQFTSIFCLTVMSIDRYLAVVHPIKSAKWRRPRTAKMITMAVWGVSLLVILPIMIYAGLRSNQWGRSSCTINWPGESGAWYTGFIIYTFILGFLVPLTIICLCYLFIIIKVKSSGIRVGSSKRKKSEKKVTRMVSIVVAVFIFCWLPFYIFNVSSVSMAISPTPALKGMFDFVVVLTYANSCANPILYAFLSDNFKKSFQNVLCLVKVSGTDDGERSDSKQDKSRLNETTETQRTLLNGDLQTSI
# experiment: Functional cAMP assay for SSTR2 agonists (HTRF) in CHO-K1 cells
# Assay type: cell-based
# particulars: CHO-K1 cells stably expressing human SST2, 20 min; read-out: hSST2 cAMP Avg EC50
observable: pEC50
Bear in mind: pEC50 is minus log10 of a mol/L concentration; give just that figure.

The molecule listed as CC[C@H](C)[C@@H]([C@@H](CC(=O)N1CCC[C@H]1[C@H](OC)[C@@H](C)C(=O)N[C@H](C)[C@@H](O)c1ccccc1)OC)N(C)C(=O)[C@@H](NC(=O)[C@H](C(C)C)N(C)C(=O)OCc1ccc(NC(=O)[C@H](CCCNC(N)=O)NC(=O)[C@@H](NC(=O)CCC(=O)NCCNc2ncc(-c3cc(C)cc(F)c3)c(N3CCC(N)CC3)c2-c2nc3ccc(Cl)cc3[nH]2)C(C)C)c(O[C@@H]2O[C@H](C(=O)O)[C@@H](O)[C@H](O)[C@H]2O)c1)C(C)C [Compound 75] shows pEC50 equal to 9.27

Value source: patent US12134610B2
